Biological target: rat MCH-1 (Rattus norvegicus, UniProt P97639)
Sequence (P97639 whole entry): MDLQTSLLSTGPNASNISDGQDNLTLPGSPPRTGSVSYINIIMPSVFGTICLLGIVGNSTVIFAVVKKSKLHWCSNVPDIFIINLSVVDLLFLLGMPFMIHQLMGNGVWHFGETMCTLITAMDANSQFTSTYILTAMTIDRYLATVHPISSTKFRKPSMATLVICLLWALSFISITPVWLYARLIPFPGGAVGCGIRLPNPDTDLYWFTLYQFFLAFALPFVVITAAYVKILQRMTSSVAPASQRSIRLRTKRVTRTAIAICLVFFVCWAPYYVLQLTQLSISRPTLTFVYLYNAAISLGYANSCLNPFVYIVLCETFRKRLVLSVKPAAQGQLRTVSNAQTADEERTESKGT
Assay: Radioligand binding assay at cloned rat MCH1 receptor ([3H] Compound A)
Set-up: host or cells: Peak rapid 293 (Peakr293) cells, transient calcium phosphate transfection, membranes
Details: cloned rat MCH1 receptor; 0.08 nM [3H] Compound A; Peakr293 cell membranes; read-out: Ki (nM) rMCH1
Property: Ki (nM)

(I) CC(C)C(=O)Nc1cccc(C2CCN(CCCNC(=O)Nc3ccc(Oc4ccccc4)cc3)CC2)c1
(II) Cc1cccc2c(CCCN3CCC(c4cccc(NC(=O)C(C)C)c4)CC3)c(-c3ccccc3I)[nH]c12
Form: Entry with minimum Ki (choose one): I / II Answer = label.
II
(II: 16.3 nM, I: 205 nM)

(A) CC(C)C(=O)Nc1cccc(C2CCN(CCCc3cc[nH]c3)CC2)c1
(B) CCC(=O)Nc1cccc(C2CCN(Cc3c[nH]c4c([N+](=O)[O-])cccc34)CC2)c1
Form: Entry with minimum Ki (choose one): A / B Answer = label.
A

* * *

Molecular target: rat MCH-1 (Rattus norvegicus, UniProt P97639)
Assay: Radioligand binding assay at cloned rat MCH1 receptor ([3H] Compound A)
Set-up: host or cells: Peak rapid 293 (Peakr293) cells, transient calcium phosphate transfection, membranes
Conditions: cloned rat MCH1 receptor, membranes from Peakr293 cells, 0.08 nM [3H] Compound A; read-out: Ki (nM) rMCH1
Property: Ki (nM)

Recorded Ki, per entry:
{"Compound": "CC(=O)c1cccc(OCCCN2CCC(c3cccc(NC(=O)C4CC4)c3)CC2)c1", "Unit name": "nM", "Reported measurement": 183}
{"Compound": "CC(C)C(=O)Nc1cccc(C2CCN(CCCCCCn3ccc4ccccc43)CC2)c1", "Unit name": "nM", "Reported measurement": 15.9}
{"Compound": "CC(C)C(=O)Nc1cccc(C2CCN(CCC(Oc3c(Cl)cccc3Cl)c3ccc(F)cc3)CC2)c1 (centres unmarked)", "Unit name": "nM", "Reported measurement": 61}

(A) CC(C)C(=O)Nc1cccc(C2CCN(Cc3ccc(-c4ccccn4)s3)CC2)c1
(B) COc1ccc(C(CCN2CCC(c3cccc(NC(=O)C(C)C)c3)CC2)Oc2ccccc2C(C)=O)cc1 (centres unmarked)
(C) CC(C)C(=O)Nc1cccc(C2CCN(CCC(=O)c3ccc(Cl)cc3)CC2)c1
(D) CC(C)C(=O)Nc1cccc(C2CCN(CCC(Oc3cccc(Br)c3)c3ccc(F)cc3)CC2)c1 (centres unmarked)
(E) Cc1ccc(C(=O)CCN2CCC(c3cccc(NC(=O)C(C)C)c3)CC2)cc1
Endpoint returns the given compounds ordered by ascending Ki. # list labels per requested ordering
D, B, C, E, A

* * *

Target: rat MCH-1 (Rattus norvegicus, UniProt P97639)
Experiment: Radioligand binding assay at cloned rat MCH1 receptor ([3H] Compound A)
Parameters: host or cells: Peak rapid 293 (Peakr293) cells, transient calcium phosphate transfection, membranes
Conditions: cloned rat MCH1 receptor; 0.08 nM [3H] Compound A; Peakr293 cell membranes; read-out: Ki (nM) rMCH1
Property: Ki (nM)

{"Smiles structure": "Cc1ccc(S(=O)(=O)N[C@@H](CCN2CCC(c3cccc(NC(=O)C(C)C)c3)CC2)c2ccccc2)cc1", "Ki, nM": 36.3}
{"Smiles structure": "CC(C)C(=O)Nc1cccc(C2CCN(CCCc3c(-c4ccc(Br)cc4)[nH]c4c3ccc3ccccc34)CC2)c1", "Ki, nM": 21.7}

(a) CCC(=O)Nc1cccc(C2CCN(CCCCCCSc3ccccc3)CC2)c1
(b) CC(C)C(=O)Nc1cccc(C2CCN(CCCc3c(-c4ccccc4Cl)[nH]c4c3ccc3ccccc34)CC2)c1
(c) Cc1ccc2c(CN3CCC(c4cccc(NC(=O)C(C)C)c4)CC3)c[nH]c2c1
(d) CC(C)C(=O)Nc1cccc(C2CCN(Cc3cccc4c3ccn4-c3cccc(Cl)c3)CC2)c1
Endpoint returns the given compounds ordered by ascending Ki. # list labels per requested ordering
b, d, c, a

(P) CC(C)C(=O)Nc1cccc(C2CCN(CCCCc3ccc([N+](=O)[O-])cc3)CC2)c1
(Q) CCC(=O)Nc1cccc(C2CCN(CCCCC(=O)c3ccccc3Cl)CC2)c1
Consider P and Q . Which of these has its Ki at a higher number? Answer = label.
Q
(Q: 77.8 nM, P: 9.9 nM)
